# Tested on: DMS 273 small cell lung
# measurement-protocol: NCI tumour cell line growth inhibition, 48 h
Can you tell me TGI for the items I'm about to list?

Task item: Please report the recorded TGI for `C/C=C/C=N/N(c1nnc(-c2ccccc2)c(-c2ccccc2)n1)S(=O)(=O)c1ccc(C)cc1` .
Reply: 29.8 µM

Task item: Record: `O=C(CCc1nnc2s/c(=C\c3ccccc3)c(=O)n12)Nc1cc(Cl)ccc1Cl`
Reply: > 100 µM

Task item: Record: `N=C(N)n1ncc(Cl)c(Cl)c1=O`
Reply: 4.78 µM

Task item: Record: `Cc1ccc2nc3c(C(=O)NCCN(C)C)cccc3cc2c1`
Reply: 6.02 µM

====

# Test system: NCI-H460 lung
# measurement-protocol: NCI tumour cell line growth inhibition, 48 h
Can you tell me TGI for the items I'm about to list?
The response must be a number in µM with no trailing unit.

Task item: Param readout = TGI; param system = NCI-H460 lung; param query = `N#CS/C(C(Cl)=C(Cl)Cl)=C(/Cl)[N+](=O)[O-]` ; response: value
Reply: 33.2

Task item: Record: CCN(CC)CC(O)c1ccc2ccc3ccccc3c2c1 (stereo not given)
Reply: 32.7

Task item: Record: `CCCCCCCCCCCCCCCCOC(=O)C(C(=O)OCCCCCCCCCCCCCCCC)[N+](C)(C)CCOC(C)=O`
Reply: 80.6

Task item: Record: `O=C1CCc2c3c(c4c([nH]c5ccccc54)c2CC1)C(=O)NC3=O`
Reply: 44.9

====

# Tested on: NCI-H23 lung
# measurement-protocol: NCI tumour cell line growth inhibition, 48 h
observable: TGI

Task item: Please report the recorded TGI for C#CCNC(=O)CCC(N)C(=O)O (stereo unspecified) .
Reply: > 100 µM

Task item: Record: `O=C(Oc1cccnc1)c1ccccc1Nc1ccnc(C(F)(F)F)c1`
Reply: 1.83 µM

Task item: Record: `CSc1ccc2c(c1)c(CCN)c(C)n2Cc1ccc(Cl)c(Cl)c1`
Reply: 3.3 µM

Task item: Record: `CN(C)c1cccc(-c2cc(=O)c3ccccc3[nH]2)c1`
Reply: > 100 µM

Task item: Record: `CN(CCCNC(=O)c1cn(C)c2c1ccc1cc(Cl)ccc12)CCCNC(=O)c1cn(C)c2c1ccc1cc(Cl)ccc12`
Reply: > 100 µM

Task item: Record: `CN(C)CCNC(=O)c1cccc2nc3ccc4ccccc4c3nc12`
Reply: 0.221 µM

Task item: Record: `OC(c1ccccc1)(c1ccccc1)c1ccccn1`
Reply: > 100 µM

Task item: Record: `CC(C)c1cc(C(C)C)c(S(=O)(=O)NN)c(C(C)C)c1`
Reply: > 100 µM

Task item: Record: `CCN1CCN(CCOc2ccc(CNc3ccc4nc(CCC5CCCCC5)[nH]c4c3)cc2)CC1`
Reply: 6.94 µM

Task item: Record: `Cc1ccc(SSCCCS(=O)O)cc1`
Reply: > 100 µM

Task item: Record: `CCOC(=O)C1=C(Nc2ccccc2)OC/C1=N\NC(=O)Cc1ccccc1`
Reply: > 50 µM

====

# Test system: HT29 colon
Form entry, call: pick from yes (1) = active, no (0) = inactive

Task item: Assay outcome for `CSc1ccc2c(c1)c(CCN)c(C)n2Cc1ccc(Cl)c(Cl)c1` : what was it?
Reply: no (0)

Task item: Record: `C=C1CC[C@@H]2C(C)(C)[C@@H](O)CC[C@@]2(C)[C@@H]1COc1ccc2ccc(=O)oc2c1`
Reply: no (0)

Task item: Record: `CCCc1cc(=O)oc2c(C(=O)CC(C)C)c(O)c(CC=C(C)C)c(O)c12`
Reply: no (0)

Task item: Record: `CC(C)=CC/C=C(/C)[C@H]1CC[C@]2(C)[C@@H]1CC[C@@H]1[C@@]3(C)CCC(=O)NC(C)(C)[C@@H]3CC[C@]12C`
Reply: no (0)

Task item: Record: `COc1ccc(CN2c3ccccc3Sc3ccccc32)cc1F`
Reply: yes (1)

Task item: Record: `COC1=C(OC)C(=O)C(/C=C(\C)C(=O)O)=C(C)C1=O`
Reply: no (0)

Task item: Record: `COc1cc(CNC(=O)/C=C/C=C/c2ccc3c(c2)OCO3)ccc1OCc1cn(-c2ccc(Cl)c(Cl)c2)nn1`
Reply: no (0)

Task item: Record: CN(C)CC(C(=O)c1ccccc1)c1ccccc1 (stereo not drawn)
Reply: no (0)

Task item: Record: O=C1NC(=NCC(CO)c2ccccc2)S/C1=C\c1ccc2ncccc2c1 (stereo not drawn)
Reply: no (0)

Task item: Record: `CCCCCCN(CCCCCC)CCCNc1nccc2ccccc12`
Reply: no (0)

Task item: Record: `CC/C(=N\Nc1nc2ccccc2n1C)c1ccccn1`
Reply: yes (1)

Task item: Record: `O=C(Oc1cccnc1)c1ccccc1Nc1ccnc(C(F)(F)F)c1`
Reply: yes (1)

Task item: Record: `Cc1cccc(CN(C)c2ccc(CO)c(Cl)c2)c1`
Reply: no (0)

====

# System: SW-620 colon
Form entry, call: pick from TRUE = active, FALSE = inactive

Task item: Assay outcome for `O=C(CCCn1c2c(sc3ncccc32)c(=O)n2nnc(-c3ccccc3)c12)NCCc1cnc[nH]1` : what was it?
Reply: TRUE

Task item: Record: COc1cc2c(cc1OCCCCNC(=O)c1cc3ccccc3[nH]1)N=CC1CCCN1C2=O (stereo not given)
Reply: FALSE

Task item: Record: `c1cncc(CNc2ccccc2-c2nnc(Nc3ccc4c(c3)OCO4)o2)c1`
Reply: TRUE

Task item: Record: `CCCCCCN(CCCCCC)CCCNc1nccc2ccccc12`
Reply: FALSE

Task item: Record: CSC1=Nc2c(c(C)c(-c3ccccc3)n2COC(CO)CO)C2=NC(=O)C(C)N12 (stereo not given)
Reply: FALSE

====

# Test system: DLD-1 colon
# measurement-protocol: NCI tumour cell line growth inhibition, 48 h
observable: TGI

Task item: Please report the recorded TGI for O=[N+]([O-])c1cccc(C2SCc3nc4ccccc4n32)c1 (stereo unspecified) .
Reply: > 100 µM

Task item: Record: `Cc1cc(C)nc(NS(=O)(=O)c2ccc(Nc3c4ccccc4nc4c(C(=O)NCCN(C)C)ccc(Cl)c34)cc2)n1`
Reply: 13.4 µM

Task item: Record: `C/C(CN1C(=O)c2ccccc2C1=O)=N\NS(=O)(=O)c1ccccc1`
Reply: > 100 µM

Task item: Record: `N=C(N)n1ncc(Cl)c(Cl)c1=O`
Reply: 5.24 µM

Task item: Record: C#CCNC(=O)CCC(N)C(=O)O (stereo unspecified)
Reply: > 100 µM

Task item: Record: `CCOP(=O)(CCP(=O)(OCC)OCC)OCC.C[CH2][Sn]([Cl])([Cl])[CH2]C`
Reply: > 79 µM

====

# Tested on: XF 498 CNS
# measurement-protocol: NCI tumour cell line growth inhibition, 48 h
observable: TGI

Task item: Please report the recorded TGI for `Nc1nnc2nc(CC(=O)/C=C/c3ccccc3)c(=O)[nH]n12` .
Reply: > 100 µM

Task item: Record: `Cc1ccc(SSCCCS(=O)O)cc1`
Reply: > 100 µM

Task item: Record: `NC(=S)N/N=C(/CC(=O)c1ccc([N+](=O)[O-])cc1)C(=O)Nc1ncc([N+](=O)[O-])s1`
Reply: > 100 µM

Task item: Record: `CC(/C=C/c1ncccc1OCCCCCC(=O)O)=N\NC1=NCCN1`
Reply: > 100 µM

Task item: Record: `O=C(CCc1nnc2s/c(=C\c3ccccc3)c(=O)n12)Nc1cc(Cl)ccc1Cl`
Reply: > 100 µM

Task item: Record: `CCSC1(SCC)CCN(C=NC(C)(C)C)C1`
Reply: > 100 µM

Task item: Record: `Cc1cc2c3ccccc3n(C)c2c2c1C(=O)c1ccccc1C2=O`
Reply: 35.7 µM

Task item: Record: `Cc1cc(C)nc(NS(=O)(=O)c2ccc(Nc3c4ccccc4nc4c(C(=O)NCCN(C)C)ccc(Cl)c34)cc2)n1`
Reply: 17.3 µM

Task item: Record: `C/C(=N\NC(=O)CC(=O)Nc1ccc(C)cc1)c1cc2ccccc2oc1=O`
Reply: > 100 µM

Task item: Record: COC(=O)CCC(NC(=S)N/N=C(\C)c1ccccn1)C(=O)OC (stereo unspecified)
Reply: > 100 µM

Task item: Record: `O=c1[nH]c(=S)[nH]c2c1sc(=S)n2-c1ccccc1`
Reply: > 100 µM

====

Can you tell me TGI for the items I'm about to list?
# System: TK-10 renal
# measurement-protocol: NCI tumour cell line growth inhibition, 48 h

Task item: Please report the recorded TGI for C[N+](C)(C)CCOP(=O)(O)OP(=O)([O-])OCC1CCC(n2ccc(N)nc2=O)O1 (stereo not given) .
Reply: > 100 µM

Task item: Record: `NNC(N)=Nc1cccc2ccccc12`
Reply: > 100 µM

Task item: Record: `COC(=O)/C(C#N)=C\N1CCN(C(=O)c2ccco2)C1=S`
Reply: 13.2 µM

Task item: Record: COc1c(OC(C)=O)cc2c(OC(C)=O)c1CC(C)CC(OC)C(O)C(C)/C=C(\C)C(OC(N)=O)C(OC)/C=C\C=C(/C)C(=O)N2 (stereo not given)
Reply: > 100 µM

Task item: Record: CN(C)CC(C(=O)c1ccccc1)c1ccccc1 (stereo not given)
Reply: 2.67 µM

Task item: Record: CSC1=Nc2c(c(C)c(-c3ccccc3)n2COC(CO)CO)C2=NC(=O)C(C)N12 (stereo not given)
Reply: > 100 µM

Task item: Record: `Nc1nc(-c2ccccc2)c(-c2ccccc2)c(-c2nc(N)nc(-c3ccccc3)c2-c2ccccc2)n1`
Reply: > 100 µM

Task item: Record: `COC(=O)N1CC[C@@H]2CCC=C(c3cccc4c3OCO4)[C@@H]21`
Reply: > 100 µM

Task item: Record: `COc1cc2c(cc1C)NC(=O)/C2=C/c1c(Cl)[nH]c2cc(C)c(OC)cc12`
Reply: 18 µM

Task item: Record: `COc1ccc(CN2c3ccccc3Sc3ccccc32)cc1F`
Reply: > 100 µM
